target: T1, recombinant human EGFR extracellular domain with 6xHis (human, UniProt P00533 25-645); test: SPR competition, competitor Ab-1
T1 construct: In-house produced; also called 6xHis EGFR ECD; soluble human EGFR ECD; not shown: 6xHis tag
What % inhibition was measured for each of the following?
Numbers only, in %.

antibody 1260 (antibody, human IgG1, kappa, V domains shown, Chimeric IgG1 kappa) VH: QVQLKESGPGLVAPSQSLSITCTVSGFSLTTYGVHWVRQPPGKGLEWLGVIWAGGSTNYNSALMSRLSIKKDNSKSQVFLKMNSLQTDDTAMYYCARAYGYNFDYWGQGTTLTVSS VL: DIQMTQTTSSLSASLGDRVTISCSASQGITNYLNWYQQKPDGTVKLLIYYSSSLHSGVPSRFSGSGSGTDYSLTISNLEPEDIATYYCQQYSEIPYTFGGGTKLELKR | 7
antibody 1320 (antibody, human IgG1, kappa, V domains shown, Chimeric IgG1 kappa) VH: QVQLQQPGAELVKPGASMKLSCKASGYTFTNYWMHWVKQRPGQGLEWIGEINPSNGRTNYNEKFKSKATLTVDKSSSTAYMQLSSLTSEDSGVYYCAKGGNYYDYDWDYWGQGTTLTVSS VL: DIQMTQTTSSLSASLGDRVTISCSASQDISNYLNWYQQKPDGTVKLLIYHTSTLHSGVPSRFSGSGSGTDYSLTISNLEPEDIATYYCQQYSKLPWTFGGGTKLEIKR | 3

Could you now look at the following binder, please?
Q: Which value of % inhibition has been reported for antibody 1042 (antibody, human IgG1, kappa, V domains shown, Chimeric IgG1 kappa; RA- left out of the VH entry) VH: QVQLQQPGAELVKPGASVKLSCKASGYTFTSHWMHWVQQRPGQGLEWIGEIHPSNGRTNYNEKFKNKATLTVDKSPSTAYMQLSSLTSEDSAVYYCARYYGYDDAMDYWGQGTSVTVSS VL: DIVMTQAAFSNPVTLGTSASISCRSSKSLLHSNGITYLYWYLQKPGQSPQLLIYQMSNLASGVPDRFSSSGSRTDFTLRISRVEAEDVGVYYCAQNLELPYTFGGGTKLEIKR in the records?
Ans: 14

Values were extracted from patent US20110135636A1.
